# credit: PubChem BioAssay (NCATS)

# System: Dd2
# ASSAY_INFO: qHTS profiling for inhibitors of Plasmodium falciparum proliferation (AID 504749); also: nearly all actives have a fitted effect of over 60% in size
# ASSAY_SETUP: P. falciparum in erythrocytes, SYBR Green DNA, 72 h; series mostly up to 28.7 µM
Records with an inconclusive call do not appear. Activity calls are given as the source filed them. Calls follow the shape of the dose curve; as a rule, active = well fitted inhibition curve with a large enough effect; inconclusive = small, poorly fitted or top-dose-only effect; inactive = flat fitted curve, though single readings scatter.
Pick one and only one: 1 (active), -1 (inactive)

The examples below pair each entry with its known result.
{"columns": ["MOLECULE", "ASSIGNED_CLASS"],
 "data": [
  ["CCCCCCCCCCCCCC[n+]1ccc(C)cc1", 1],
  ["C[C@]12CCC(=O)C=C1CC[C@@H]1[C@@H]2[C@@H](O)C[C@@]2(C)[C@H]1CC[C@]2(O)C(=O)COP(=O)(O)O", -1],
  ["CCNC(=O)[C@@H]1CCCN1C(=O)[C@H](CCCN=C(N)N)NC(=O)[C@H](CC(C)C)NC(=O)[C@@H](Cc1c[nH]c2ccccc12)NC(=O)[C@H](Cc1ccc(O)cc1)NC(=O)[C@H](CO)NC(=O)[C@H](Cc1c[nH]c2ccccc12)NC(=O)[C@H](Cc1cnc[nH]1)NC(=O)[C@@H]1CCC(=O)N1", 1],
  ["C[C@H]1C[C@H]2[C@@H]3CCC4=CC(=O)C=C[C@]4(C)[C@@]3(F)[C@@H](O)C[C@]2(C)[C@@]1(O)C(=O)CO", -1],
  ["CC(C(=O)O)c1ccc(N2Cc3ccccc3C2=O)cc1 (configuration not stated)", -1]
]}

Which outcome did this test record for the molecule C[C@@H]1CCC2[C@@H](C)[C@@H](O)O[C@@H]3O[C@@]4(C)CC[C@@H]1[C@@]23OO4 (some centres not stated) ? 1

Tell me the recorded outcome of this test for COC(=O)CCC(=O)CN . -1

Record request — test call for Cc1cn([C@H]2C[C@H](O)[C@@H](CO)O2)c(=O)[nH]c1=O -1

Fill in: this test's call for CCCCC/C=C\C/C=C\CCCCCCCC(=O)O is ___ -1

I'd appreciate the recorded outcome for CCCCCCCCCCCC[n+]1ccc2ccccc2c1 from this test. 1

Please indicate how the test categorized CN=C(NC#N)Nc1ccc(C2=NNC(=O)C[C@@H]2C)cc1 . -1

Field: outcome | Entry: C#C[C@]1(O)CC[C@H]2[C@@H]3CCC4=CCCC[C@@H]4[C@H]3C(=C)C[C@@]21CC -1

For Cc1c(C)c2c(c(C)c1O)CC[C@@](C)(CCC[C@@H](C)CCC[C@@H](C)CCCC(C)C)O2 , what call appears in the results of this test? -1
